System: HCT-15 colon
Assay: NCI-60 one-dose screen, 48 h (100 = growth as untreated, 0 = no growth, -100 = all killed)
Conditions: 10 µM unless noted
The panel holds about 83,000 compounds, 20% with a hit somewhere; the sample as a whole holds those more often. Activity calls are given as the source filed them. How the source made its calls: active means growth percent below 10; inactive means the rest.
Quantity Name: growth

Query: growth; subject: `COc1cccc(-c2nc3sccn3c2-c2ccnc(NCCCNS(=O)(=O)c3c(Cl)cccc3Cl)c2)c1` 37.7% (inactive)

Query: growth; subject: CC1C(/C=N/Nc2ccccc2)C(C#N)(C#N)C1(C#N)C#N (stereo not given) 69.2% (inactive)

Query: growth; subject: COc1ccc(C2CC(c3ccc4ccccc4c3)=NN2/C=C2\SC(=S)N(NC(=O)Cc3ccccc3Nc3c(Cl)cccc3Cl)C2=O)cc1 (stereo not given) 19.4% (inactive)

Query: growth; subject: `O=C(CN1CCCCC1)Nc1ccc2oc(=O)ccc2c1` 104% (inactive)

Query: growth; subject: `CCCCN(CCCC)CCCn1c(-c2ccccc2)ccc1-c1ccccc1` 55.3% (inactive)

Query: growth; subject: `C=C1c2nc3ccccc3n2C=C(c2ccc(OC)cc2)N1Cc1ccccc1` 73.8% (inactive)

Query: growth; subject: `Cc1cc2c3ccccc3ccc2[n+]2ccccc12` 105% (inactive)

Query: growth; subject: `CC1=C[C@H]2c3c(c(O)c(O)c4oc5cc(O)ccc5c(=O)c34)[C@H](c3cc(O)c(O)c4oc5cc(O)ccc5c(=O)c34)[C@H]2C(C)(C)C1` 33.4% (inactive)

Query: growth; subject: `CC(C)(C)c1cc(C(C)(C)C)cc(S(=O)(=O)Nc2cc3ccccc3cc2C(=O)NCCN)c1` 38.8% (inactive)

Query: growth; subject: `Cc1cc(C)c2nc3nc(C)cc(C)c3c(N)c2c1` 16.4% (inactive)

---

System: MCF7 breast
Test: NCI-60 one-dose screen, 48 h (100 = growth as untreated, 0 = no growth, -100 = all killed)
Conditions: 10 µM unless noted
Compounds without any hit were thinned out: in the full panel of roughly 83,000, 20% have a hit.
Consider the following compounds; for each one, report its growth.
Report as a plain number; the unit % is understood.

Query for MCF7 breast: what growth does the record show for `O=C(Nc1cccc2[nH]c(C(F)(F)F)nc12)c1ccc(-n2cnnn2)cc1` ? 96.2

Query for MCF7 breast: what growth does the record show for `COc1ccc(-n2nc(C)c3c(Nc4ccc(NC(=O)Nc5cc(C(F)(F)F)ccc5F)cc4)ncnc32)cc1` ? 34.2

Query for MCF7 breast: what growth does the record show for CC(O)CN(CC(C)O)c1ccc2c(c1)Cc1cc([N+](=O)[O-])ccc1-2 (centres undefined) ? 99.2

Query for MCF7 breast: what growth does the record show for `COc1ccc2c(c1)C(=O)/C(=C/c1cccnc1)CC2` ? 45.3

Query for MCF7 breast: what growth does the record show for `COc1ccc(C(=O)COc2ccc(/C=C3\COc4ccc(OC)cc4C3=O)cc2)cc1` ? 34.2

Query for MCF7 breast: what growth does the record show for `O=C1/C(=C(/c2ccccc2)N2CCOCC2)Cc2ccccc21` ? 17.9

Query for MCF7 breast: what growth does the record show for `Clc1ccc2c(NCCCCNc3nc(N4CCOCC4)nc4ccccc34)ccnc2c1` ? 33.3

Query for MCF7 breast: what growth does the record show for `C=C(C)[C@@H]1CC[C@]2(C(N)=O)CC[C@]3(C)[C@H](CC[C@@H]4[C@@]5(C)C/C(=C/c6ccco6)C(=O)C(C)(C)[C@@H]5CC[C@]43C)[C@@H]12` ? 79.8

Query for MCF7 breast: what growth does the record show for `CCOC(=O)c1cc(C(=O)c2ccc(O)c(O)c2)n2ccc(-c3ccn4c(C(=O)c5ccc(O)c(O)c5)cc(C(=O)OCC)c4c3)cc12` ? 99.1

---

System: MDA-MB-231 breast
Assay: NCI-60 one-dose screen, 48 h (100 = growth as untreated, 0 = no growth, -100 = all killed)
Details: 10 µM unless noted
The panel holds about 83,000 compounds, 20% with a hit somewhere; the sample as a whole holds those more often.
Consider the following molecules; for each one, report its growth.
Report as a plain number; the unit % is understood.

Query: growth; subject: `CC[C@H]1OC(=O)[C@H](C)[C@@H](O[C@H]2C[C@@](C)(OC)[C@@H](O)[C@H](C)O2)[C@H](C)[C@@H](O[C@@H]2O[C@H](C)C[C@H](N(C)C)[C@H]2O)[C@](C)(O)C[C@H](C)CN(C)[C@H](C)[C@@H](O)[C@]1(C)O` 55.2

Query: growth; subject: `Nc1ccn(-c2ccc(Br)cc2)c(=O)n1` 104

Query: growth; subject: `COc1cccc(-c2nc(SCC(=O)Nc3ccc(C(=O)/C=C/c4ccc(OC)c(OC)c4)cc3)[nH]c(=O)c2C#N)c1` 67.6

---

Test system: SF-295 CNS
Experiment: NCI-60 one-dose screen, 48 h (100 = growth as untreated, 0 = no growth, -100 = all killed)
Details: 10 µM unless noted
Method: Cells are grown in 96 well plates and exposed to the test compound for 48 hours. Compounds are tested at a single concentration, which is 10^-5 M for most compounds. The reported endpoint is percent growth (GI% or GIPRCNT), where numbers from 0 - 100% represent growth inhibition, and numbers from -100% - 0 represent cell death. For example, a value of 40 represents 60% growth inhibition. A value of 0 means no net growth occurred over the course of the experiment. […]
The panel holds about 83,000 compounds, 20% with a hit somewhere; the sample as a whole holds those more often. Calls of active or inactive are those of the source. The calls were made as follows: active = growth percent below 10; inactive = the rest.
Quantity Name: growth

Query: growth; subject: `CCCOc1cc2ccccc2cc1C(=O)Nc1nc(NC)c2c(ccc3nccc32)[nH]1` -66.6% (active)

Query: growth; subject: CCN1CCC2(CC1)NC(=O)c1c(c3ccc(Cl)c(Cl)c3n1C)C2C#N (stereo not given) 70.8% (inactive)

Query: growth; subject: `C=CC(=O)Nc1cccc(-c2nc(SC)nc(Nc3ccccc3OC)c2C#N)c1` 80.3% (inactive)

Query: growth; subject: `COc1cc2nc(N3CCCC3)nc(NCC3CCCCC3)c2cc1OC` -70.9% (active)

Query: growth; subject: `COc1cc(/C=C/C(=O)c2cccnc2Nc2ccc(F)cc2)cc(OC)c1OC` 57.6% (inactive)

Query: growth; subject: C=C(C)C1CC(O)C2(C)CCCC3C2C1CC(C)C3(C)CC/C(C)=C/C(O)C1CCC(=O)c2c(OC)cc(OC)cc21 (stereo not given) 41.4% (inactive)

Query: growth; subject: CC(=O)NCC1c2c(n(C)c3c(Cl)c(Cl)ccc23)C(=O)NC1(C)C (stereo not given) 89.5% (inactive)

Query: growth; subject: `CCCCCCCCCCCCC[N+](C)(C)Cc1ccccc1` 13.5% (inactive)

Query: growth; subject: `O=C(Cc1ccc(/C=C/C(=O)c2ncc[nH]2)cc1)Nc1ccccc1` 69.7% (inactive)

Query: growth; subject: CC(O)CN(CC(C)O)c1ccc2c(c1)Cc1cc([N+](=O)[O-])ccc1-2 (stereo not given) 90.3% (inactive)

Query: growth; subject: `Cc1nc(Nc2ccc(F)c(Cl)c2)sc1C(=O)O` 15.2% (inactive)

Query: growth; subject: `O=C(Nc1ccccc1Cl)c1ccc(NC2=C(Cl)C(=O)N(C3CCCCC3)C2=O)cc1` 21.6% [30 µM] (inactive)

Query: growth; subject: `COc1ccc(-c2nc(SCC(=O)Nc3ccc(C(=O)/C=C/c4ccc(Cl)cc4)cc3)[nH]c(=O)c2C#N)cc1` 98.5% (inactive)

Query: growth; subject: `Cc1cc(NS(=O)(=O)c2ccc(-c3cnc(C4CC4)o3)cc2)ccc1Cl` 1.8% (active)

Query: growth; subject: `COc1cc(Nc2cc(C)nc(N3CCN(c4ccnc5cc(Cl)ccc45)CC3)n2)cc(OC)c1` 0.307% (active)

Query: growth; subject: `COc1ccc(-n2nc(C)c3c(Nc4ccc(NC(=O)Nc5c(Cl)cccc5Cl)cc4)ncnc32)cc1` 85.2% (inactive)

Query: growth; subject: `CS(=O)(=O)c1ccc(-n2nc(-c3ccc(Br)cc3)c3ccccc3c2=O)cc1` 94% (inactive)

Query: growth; subject: `COc1cc(-c2nn(-c3ccc(Br)cc3)cc2C(=O)O)ccc1O` 101% (inactive)

Query: growth; subject: `CCCCN1CCCn2c1nc1c2c(=O)n(CCC)c(=O)n1CCC` 102% (inactive)

Query: growth; subject: `FC(F)(F)c1ccc(-c2cn3nc(-c4c[nH]c5ccc(Br)cc45)sc3n2)cc1` 95.2% (inactive)

---

Test system: TK-10 renal
Assay: NCI-60 one-dose screen, 48 h
Conditions: 10 µM unless noted
The panel holds about 83,000 compounds, 20% with a hit somewhere; the sample as a whole holds those more often. Activity calls are given as the source filed them. How the source made its calls: active means growth percent below 10; inactive means the rest.
Answer with one of the outcomes active, inactive

Lab log entry: `O=C(Nc1cccc2[nH]c(C(F)(F)F)nc12)c1ccc(-n2cnnn2)cc1` — outcome as called in the assay? inactive

Lab log entry: `O=C(O)c1c(=O)cccc2ssc12` — outcome as called in the assay? active

Lab log entry: `c1ccc(-c2cc3n4c(-c5ccccc5)nn(-c5ccccc5)c4cnc-3n2)cc1` — outcome as called in the assay? inactive

Lab log entry: `FC(F)(F)c1nc2c(NCc3ccc(-c4ccccc4)cc3)cccc2[nH]1` — outcome as called in the assay? inactive

Lab log entry: `C(=C\c1nccc2c1[nH]c1ccccc12)/c1ccccc1` — outcome as called in the assay? inactive

Lab log entry: `COc1ccc(-c2nc3cc(C(=O)Nc4cc(OC)c(OC)c(OC)c4)ccc3n2C2CCCCC2)cc1` — outcome as called in the assay? inactive

Lab log entry: `COc1cc2c(cc1O)CC[C@@H]1[C@@H]2CC[C@]2(C)[C@@H](OCCN(C)C)CC[C@@H]12` — outcome as called in the assay? inactive

Lab log entry: `COc1cccc(-c2nc3sccn3c2-c2ccnc(NCCCNS(=O)(=O)c3cccc(Cl)c3)c2)c1` — outcome as called in the assay? inactive

Lab log entry: CCC([N+](=O)[O-])S(=O)(=O)c1ccc(C)cc1 (stereo unspecified) — outcome as called in the assay? inactive

Lab log entry: `COc1ccc(Nc2nc(SC)nc(-c3cccc([N+](=O)[O-])c3)c2C#N)cc1` — outcome as called in the assay? inactive

Lab log entry: CCOC(=O)C(C)(C#N)C1C=CCCC1 (stereo unspecified) — outcome as called in the assay? inactive

Lab log entry: `N#Cc1c(-c2ccc(Cl)cc2)nc(N/N=C/c2cccc(Br)c2)nc1N1CCOCC1` — outcome as called in the assay? inactive

Lab log entry: `O=C1c2cc3c(cc2-c2c1c1ccc(F)cc1c(=O)n2C[C@H](O)[C@@H](O)[C@H](O)CO)OCO3` — outcome as called in the assay? active

Lab log entry: `COc1ccccc1Nc1nc(-c2cc3cccc(C(F)(F)F)c3oc2=O)cs1` — outcome as called in the assay? inactive

Lab log entry: `O=C(/C=C/C=C/c1ccc2c(c1)OCO2)N/N=C\c1ccc(O)cc1O` — outcome as called in the assay? inactive

Lab log entry: O=C1/C(=C/N2N=C(c3ccc4ccccc4c3)CC2c2ccccc2O)SC(=S)N1c1cccnc1 (stereo unspecified) — outcome as called in the assay? inactive

Lab log entry: `Cn1cc(-c2nonc2-c2cn(C)c3ccc(F)cc23)c2ccccc21` — outcome as called in the assay? inactive

Lab log entry: `C=CC(=O)Nc1cccc(-c2nc(SC)nc(NCCN3CCOCC3)c2C#N)c1` — outcome as called in the assay? inactive

Lab log entry: COc1cc(C2CC(=O)c3ccccc3N2)cc(OC)c1OC (stereo unspecified) — outcome as called in the assay? inactive

Lab log entry: `Cn1c(NCCc2ccc(O)c(O)c2)nc2c1c(=O)n(Cc1ccc(Br)cc1)c(=O)n2C` — outcome as called in the assay? inactive

Lab log entry: `N#C/C(=C\c1ccc(-c2cc(C(F)(F)F)ccc2Cl)o1)c1nc(-c2ccco2)cs1` — outcome as called in the assay? inactive
